target: T1, human AXL transiently expressed by HEK-293F cells (Homo sapiens, UniProt P30530); test: Homogeneous antigen specific screening assay (FMAT); settings: binding to human AXL on HEK-293F cells
T1 construct: HEK-293F cells transiently expressing full length human AXL; expressed in transfected cells; host or cells: HEK-293F
Examples of molecules with documented Maximal binding follow.

Molecule	Data Value
IgG1-AXL-140: human IgG1,κ anti-AXL antibody, VH SEQ ID NO:3, VL SEQ ID NO:4 (antibody, V domains shown, homo sapiens) VH: EVQLLESGGGLVQPGGSLRLSCAASGFTFSSYAMTWVRQAPGKGLEWVSAISISGASTFYADSVKGRFTISRDNSKNTLSLQMNSLRAEDTAVYFCRGYSGYVYDAFDIWGQGTMVTVSS VL: DIQMTQSPSSLSASVGDRVTITCRASQGISNWLAWYQQKPEKAPKSLIYAASSLQSGVPSRFSGSGSGTDFTLTISSLQPEDFATYYCQQYNSYPLTFGGGTKVEIK	2889 Arbitrary units
IgG1-AXL-726: human IgG1,κ anti-AXL antibody, VH SEQ ID NO:31, VL SEQ ID NO:33; FN2 domain binding (antibody, V domains shown, homo sapiens) VH: QVQLQQWGAGLLKPSETLSLTCAIDGGSFSGYYWSWIRQPPGKGLEWIGEISHSGRTNYNPSLKSRVTISIDTSKNQFSLKLSSVAAADTAVYYCARFITMIRGAIITHFDYWGQGALVTVSS VL: DIQMTQSPSSLSASVGDRVTITCRASQGISSWLAWYQQKPEKAPKSLIYAASSLQSGVPSRFSGSGSGTDFTLTISSLQPEDFATYYCQQYHSYPYTFGQGTKLEIK	3154 Arbitrary units

Let us examine a further case.
Could you share which Maximal binding value was measured for IgG1-AXL-148: human IgG1,κ anti-AXL antibody, VH SEQ ID NO:5, VL SEQ ID NO:6; Ig2 domain binding (antibody, V domains shown, homo sapiens) VH: EVQLLESGGGLVQPGGSLRLSCAASGFTFSSYAMTWVRQAPGKGLEWVSAISISGGSTFYADSVKGRFTISRDNSKNTLYLQMNSLRAEDTAVYYCRGYSGYVYDAFDFWGQGTMVTVSS VL: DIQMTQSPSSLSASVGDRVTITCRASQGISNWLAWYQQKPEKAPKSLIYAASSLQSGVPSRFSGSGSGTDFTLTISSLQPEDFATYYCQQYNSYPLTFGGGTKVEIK ?
3499 Arbitrary units
